Each recorded value in this set is attributed to PubChem BioAssay (EPA / NIEHS).

method-notes: ATG_NRF2_ARE_CIS: Attagene CIS-FACTORIAL HepG2 Assay for human Nuclear Factor Erythroid 2 Related Factor 2 (NFR2) response to Antioxidant Response Elements (ARE) (AID 2282992)
condition-details: HepG2 Attagene ARE/NRF2 reporter, transcription factor activity; actives raise or lower the signal
Calls of active or inactive are those of the source. How the source made its calls: active means hit-call score of the fitted dose curve at least 0.9, where 1 is the maximum; inactive means score below 0.9.
Outcomes: y (active), n (inactive)

{"columns": ["molecular-string", "class-assignment"],
 "data": [
  ["CC(C)COP(=O)(OCC(C)C)OCC(C)C", "y"],
  ["Nc1ccc([N+](=O)[O-])cc1N", "y"],
  ["O=S(=O)(c1ccccc1)c1ccccc1", "n"],
  ["CC(C)C#N", "n"],
  ["C[C@]12CC[C@H](O)C[C@H]1CC[C@@H]1[C@@H]2C[C@@H](O)[C@]2(C)[C@@H](C3=CC(=O)OC3)CC[C@]12O", "n"]
]}

###

method-notes: IUF_NPC2b_neuronal_migration_120hr: Leibniz Research Institute for Environmental Medicine (IUF) 120-hour Neural Progenitor Cell Migration Assay for Neuron Migration (NPC2b) (AID 2284300)
The source made the active and inactive calls. Rule for the calls: active = hit-call score of the fitted dose curve at least 0.9, where 1 is the maximum; inactive = score below 0.9.

{"columns": ["molecule", "AC50"],
 "data": [
  ["CC1(C)[C@H](C=C(Cl)Cl)[C@H]1C(=O)OCc1c(F)c(F)cc(F)c1F", "inactive"],
  ["CC(=O)[O-].[Tl+]", "33 µM (active)"],
  ["CCOP(=O)(Oc1cnc(C(C)(C)C)nc1)OC(C)C (configuration not stated)", "inactive"],
  ["[Cd+2].[Cl-].[Cl-]", "17.7 µM (active)"],
  ["CCOP(=O)(OCC)SCSCC", "inactive"],
  ["[O-][Cl+3]([O-])([O-])O", "inactive"],
  ["CCOP(=O)(OCC)OC(Cl)C(Cl)(Cl)Cl (configuration not stated)", "inactive"],
  ["CC(=O)[O-].CC(=O)[O-].O.O.O.[Pb+2]", "inactive"],
  ["CCOP(=S)(OCC)SCS(=O)C(C)(C)C (configuration not stated)", "inactive"],
  ["Cc1ccc(OP(=O)(Oc2ccc(C)cc2)Oc2ccc(C)cc2)cc1 (tested in a mixture with another compound)", "inactive"],
  ["C/C(=C/C=C/[C@@H](C)C(=O)O)[C@H]1CN[C@H](C(=O)O)[C@H]1CC(=O)O", "inactive"],
  ["CC1(C)[C@H](C(=O)O[C@H](C#N)c2cccc(Oc3ccccc3)c2)[C@@H]1C=C(Br)Br", "inactive"]
]}

###

method-notes: TOX21_p53_BLA_p5_viability: Viability Assessment in the Tox21 HCT-116 p53 Agonism Beta-lactamase Assay, Phase 5 (AID 2283600)
Records with an inconclusive call do not appear. Active and inactive are the calls of the source. Rule for the calls: active = hit-call score of the fitted dose curve at least 0.9, where 1 is the maximum; inconclusive = response in the unintended direction; inactive = score below 0.9.
Outcomes: active, inactive

{"columns": ["compound", "class-assignment"],
 "data": [
  ["O=C(Cl)/C=C/C(=O)Cl", "inactive"],
  ["COC(=O)c1ccc(CBr)cc1", "inactive"],
  ["O=C([O-])c1ccccn1.O=C([O-])c1ccccn1.O=C([O-])c1ccccn1.[Cr+3]", "inactive"],
  ["Cc1cccc(N)c1C", "inactive"],
  ["O=[N+]([O-])c1cc(C(F)(F)F)c(Cl)c([N+](=O)[O-])c1Cl", "active"],
  ["CC(C)(C)C(=O)CCl", "inactive"],
  ["NC1(c2ccccc2)CCCCC1", "inactive"],
  ["OC(c1ccccc1)(c1ccccc1)C1CN2CCC1CC2 (centres undefined)", "inactive"],
  ["Cc1ccccc1CCl", "inactive"],
  ["CC(C)(O)C(Cl)(Cl)Cl", "inactive"],
  ["NCC(O)c1cccc(O)c1 (centres undefined)", "inactive"],
  ["[O]=[Cd]", "inactive"],
  ["c1coc(-c2nc3ccccc3[nH]2)c1", "inactive"],
  ["CC(=O)[C@@]1(O)CC[C@H]2[C@@H]3CCC4=CC(=O)CC[C@]4(C)C3(F)[C@@H](O)C[C@@]21C (some centres undefined)", "inactive"],
  ["CC(Cc1ccccc1)NCc1ccccc1Cl (centres undefined)", "inactive"],
  ["O=[N+]([O-])O", "inactive"],
  ["C=CC(=O)OCC(CC)CCCC (centres undefined)", "inactive"],
  ["CCCC(C)(COC(N)=O)COC(N)=O", "inactive"],
  ["C(COCC1CO1)OCC1CO1 (centres undefined)", "inactive"],
  ["C=CC(=O)OCC(C)C", "inactive"],
  ["CC(C)CCON=O", "inactive"],
  ["CC(=O)C(Cl)Cl", "inactive"],
  ["Clc1cc(Cl)c(-c2cc(Cl)c(Cl)cc2Cl)cc1Cl", "inactive"],
  ["O=c1oc2ccccc2c(O)c1Cc1c(O)c2ccccc2oc1=O", "inactive"],
  ["CCCCCCCCCCCCN=C(N)N", "inactive"],
  ["[S]=[Sb](=[S])[S][Sb](=[S])=[S]", "inactive"],
  ["CC(=O)O[C@H]1C[C@H](O[C@H]2[C@@H](O)C[C@H](O[C@H]3[C@@H](O)C[C@H](O[C@H]4CC[C@@]5(C)[C@H](CC[C@@H]6[C@@H]5C[C@@H](O)[C@]5(C)[C@@H](C7=CC(=O)OC7)CC[C@]65O)C4)O[C@@H]3C)O[C@@H]2C)O[C@H](C)[C@H]1O[C@@H]1O[C@H](CO)[C@@H](O)[C@H](O)[C@H]1O", "active"],
  ["CNC(=O)NC(O)C(Cl)(Cl)Cl (centres undefined)", "inactive"],
  ["CC(C)(O)C#N", "inactive"],
  ["CN(C)c1ccc(N=Nc2ccccc2)cc1", "inactive"],
  ["Cc1ccc(-c2nc3ccc(C)cn3c2CC(=O)N(C)C)cc1", "inactive"],
  ["OCC(Br)CBr (centres undefined)", "inactive"],
  ["Cc1ccc(N(SC(F)(Cl)Cl)S(=O)(=O)N(C)C)cc1", "inactive"],
  ["Oc1ccc(C(=C(Cl)Cl)c2ccc(O)cc2)cc1", "inactive"],
  ["C=CCN1CC[C@]23CCCC[C@H]2[C@H]1Cc1ccc(O)cc13", "inactive"],
  ["COc1cc(OC)c(OC)cc1C=O", "inactive"],
  ["CCOC(=O)NC(C)(C)Cc1ccc(Cl)cc1", "inactive"],
  ["CC1(C)CC(=O)CC(C)(C)N1[O]", "inactive"],
  ["O=C1c2ccccc2C(=O)c2ccccc21", "inactive"],
  ["C=CCO", "inactive"],
  ["CCCCCCI", "inactive"],
  ["CCCCCCCCCCCC#N", "inactive"],
  ["CC(N)Cc1ccc2c(c1)OCO2 (centres undefined)", "inactive"],
  ["CN1CCc2cc3c(cc2C1O)OCO3 (centres undefined)", "inactive"]
]}
